Ref: patent US12534429B2

Record form. Attribute: IC50. Fill in for each entry.
target: PSMA on LNCaP cells (Homo sapiens); construct: LNCaP human prostate cancer cells were obtained from American Type Culture Collection; host or cells: LNCaP human prostate cancer cells; test: In vitro cell binding: competition with I-131 DCIT for binding to PSMA on LNCaP cells; details: LNCaP cells, 3 nM I-131 DCIT, 1 hour; read-out: IC50 (nM), in vitro cell binding data

| molecule | IC50 |
| --- | --- |
| O=C(O)CC[C@H](NC(=O)N[C@@H](CCCCNC(=O)CCCCCCCCCCN(Cc1ccc(I)cc1)Cc1ccc(I)cc1)C(=O)O)C(=O)O [MIP-1130] | 300 nM |
| O=C(O)CC[C@H](NC(=O)N[C@@H](CCCCNC(=O)NCc1cccc(I)c1)C(=O)O)C(=O)O [MIP-1101] | 10 nM |

For the next question, use this molecule.
Could you please provide reported IC50 for O=C(O)CC[C@H](NC(=O)N[C@@H](CCCCNCc1cccc2ccccc12)C(=O)O)C(=O)O [MIP-1108] ? Thanks!
154 nM

* * *

biological target: PSMA on LNCaP cells (Homo sapiens, UniProt Q04609); construct: LNCaP human prostate cancer cells were obtained from American Type Culture Collection; host or cells: LNCaP human prostate cancer cells; assay: In vitro cell binding: competition with I-131 DCIT for binding to PSMA on LNCaP cells; settings: LnCap cells, dose curves; read-out: IC-50 versus I-131 DCIT
Sequence (Q04609 whole entry): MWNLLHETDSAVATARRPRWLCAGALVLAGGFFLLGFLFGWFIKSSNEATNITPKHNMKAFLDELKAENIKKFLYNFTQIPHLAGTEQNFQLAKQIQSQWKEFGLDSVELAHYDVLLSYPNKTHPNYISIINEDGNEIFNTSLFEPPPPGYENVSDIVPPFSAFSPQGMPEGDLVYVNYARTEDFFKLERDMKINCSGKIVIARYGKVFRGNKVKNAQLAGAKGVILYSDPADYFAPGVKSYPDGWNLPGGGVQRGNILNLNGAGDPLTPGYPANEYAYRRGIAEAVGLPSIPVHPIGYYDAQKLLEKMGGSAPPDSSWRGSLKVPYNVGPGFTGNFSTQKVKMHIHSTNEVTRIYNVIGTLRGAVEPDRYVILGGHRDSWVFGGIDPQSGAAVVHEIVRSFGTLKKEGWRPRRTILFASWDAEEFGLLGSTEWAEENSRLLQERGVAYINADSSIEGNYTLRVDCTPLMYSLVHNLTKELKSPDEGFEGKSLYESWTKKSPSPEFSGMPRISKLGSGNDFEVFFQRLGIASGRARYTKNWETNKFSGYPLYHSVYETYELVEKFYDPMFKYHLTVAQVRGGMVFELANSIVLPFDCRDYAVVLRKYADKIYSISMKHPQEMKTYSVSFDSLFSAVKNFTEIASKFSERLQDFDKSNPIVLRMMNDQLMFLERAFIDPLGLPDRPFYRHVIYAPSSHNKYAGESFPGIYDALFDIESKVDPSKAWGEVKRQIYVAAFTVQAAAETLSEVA
Record form. Attribute: pIC50. Fill in for each entry.
Numbers only, as −log10 of the molar value.

| smiles-code | assay-readout | data-value |
| --- | --- | --- |
| O=C(O)CC[C@H](NC(=O)N[C@@H](CCCCN(Cc1ccccn1)Cc1ccccn1)C(=O)O)C(=O)O | pIC50 | 7.01 |

For the next question, use this compound.
Could you please provide reported pIC50 for `NCCCC[C@H](NC(=O)N[C@@H](CCC(=O)O)C(=O)O)C(=O)O` ? Thanks!
6.30

* * *

biological target: PSMA on LNCaP cells (Homo sapiens, UniProt Q04609); construct: LNCaP human prostate cancer cells were obtained from American Type Culture Collection; host or cells: LNCaP human prostate cancer cells; experiment: In vitro cell binding: competition with I-131 DCIT for binding to PSMA on LNCaP cells; conditions: LNCaP cells, 3 nM I-131 DCIT, 1 hour; read-out: IC50 (nM), in vitro cell binding data
assay-readout: IC50 (nM)
Numbers only, in nM.

Use the examples below as a reference point.
| molecule | assay-system | reading-unit | IC50 |
| --- | --- | --- | --- |
| O=C(O)CC[C@H](NC(=O)N[C@@H](CCCCNC(=O)Nc1ccccc1)C(=O)O)C(=O)O (stereo in doubt) [MIP 1111] | PSMA on LNCaP cells (Homo sapiens, UniProt Q04609) | nM | 12 |
| O=C(O)CC[C@H](NC(=O)N[C@@H](CCCCNC(=O)Nc1ccc(I)cc1)C(=O)O)C(=O)O [MIP 1095] | PSMA on LNCaP cells (Homo sapiens, UniProt Q04609) | nM | 10 |
| O=C(O)CC[C@H](NC(=O)NC(CCCCNCc1ccccc1)C(=O)O)C(=O)O (stereo in doubt) [MIP-1106] | PSMA on LNCaP cells (Homo sapiens, UniProt Q04609) | nM | 2960 |
| O=C(O)CC[C@H](NC(=O)N[C@@H](CCCCNC(=O)Nc1ccc(Cl)cc1)C(=O)O)C(=O)O [MIP 1110] | PSMA on LNCaP cells (Homo sapiens, UniProt Q04609) | nM | 4 |
| NCCCC[C@H](NC(=O)N[C@@H](CCC(=O)O)C(=O)O)C(=O)O [MIP 1033] | PSMA on LNCaP cells (Homo sapiens, UniProt Q04609) | nM | 498 |

Provide each entry's IC50 from the list below.
1. O=C(O)CC[C@H](NC(=O)N[C@@H](CCCCNCc1ccc(Cl)cc1)C(=O)O)C(=O)O [MIP 1135]
2. O=C(O)CC[C@H](NC(=O)N[C@@H](CCCCNCc1cccc(Cl)c1)C(=O)O)C(=O)O [MIP 1131]

1: 2; 2: 277

Could you please provide reported IC50 for O=C(O)CC[C@H](NC(=O)N[C@@H](CCCCNCc1ccccc1Cl)C(=O)O)C(=O)O [MIP-1137] ? Thanks!
245
